assay: In vitro cytotoxicity assay (XTT), HT29; settings: human, HT29 cells, HT29 CC50, 48 h, 0–500 µM, XTT
Measured CC50 at 48 h accompanies every entry in the list below.
Report as a plain number; the unit µM is understood.

Worked cases, CC50 at 48 h given:
>  <COMPOUND>
Cc1ncc([N+](=O)[O-])n1CCOC(=O)Nc1ccccc1 [AGR-2]

>  <QUANTITY>
CC50 at 48 h

>  <MEASURED NUMBER>
730

$$$$
>  <COMPOUND>
Cc1ncc([N+](=O)[O-])n1CCOC(=O)Nc1ccc(F)cc1 [AGR-4]

>  <QUANTITY>
CC50 at 48 h

>  <MEASURED NUMBER>
593

$$$$
>  <COMPOUND>
Cc1ncc([N+](=O)[O-])n1CCOC(=O)Nc1ccc(Cl)cc1 [AGR-3]

>  <QUANTITY>
CC50 at 48 h

>  <MEASURED NUMBER>
660

$$$$

Field: next compound
Query :: Any idea what CC50 at 48 h was measured for Cc1ncc([N+](=O)[O-])n1CCOC(=O)NC1CCCCC1 [AGR-1] ?
Result :: 532
